System: ENR+CD organoids
test.name: Primary screen: ATP (CellTiter-Glo 3D, CTG) cell number/viability, 2.5-D 384-well ENR+CD organoids;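 also: compounds given at plating and again on day 3 over a 6-day differentiation from ENR+CV stem-cell-enriched precursors, ATP measured on day 6, plate median as control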
applied.conditions: primary screen, dose 10.00 uM, FC relative to plate median
Where a name gives a salt, the structure may show the parent alone.
Please note: Dose.FC.CTG exactly at -0.03 log2 fold change is 0. Only values below -0.03 log2 fold change get 1.

Exercise: # TODO verify Dose.FC.CTG < -0.03 log2 fold change strictly for this compound: Cn1cnc2c(F)c(Nc3ccc(Br)cc3Cl)c(C(=O)NOCCO)cc21
Key: 1

Exercise: Please state whether Dose.FC.CTG is below -0.03 log2 fold change for O=C1NC(=O)/C(=C/c2cccc(C(F)(F)F)c2)S1
Key: 1

Exercise: Please indicate whether the reported Dose.FC.CTG of Cc1cc2c(cc1CC(=O)c1sccc1S(=O)(=O)Nc1onc(C)c1Cl)OCO2 [Sitaxentan sodium] is strictly below -0.03 log2 fold change.
Key: 1

Exercise: Consider CN1CC(=O)N2[C@H](c3ccc4c(c3)OCO4)c3[nH]c4ccccc4c3C[C@@H]2C1=O . Does its Dose.FC.CTG lie strictly below -0.03 log2 fold change?
Key: 0

Exercise: Quick check: Dose.FC.CTG of COc1cc2c(cc1OC)[C@@H]1Cc3ccc(OC)c(OC)c3CN1CC2 under -0.03 log2 fold change?
Key: 0

Exercise: I'd appreciate it if you could check whether O=C(NC[C@H]1CN(c2ccc(N3CCOCC3=O)cc2)C(=O)O1)c1ccc(Cl)s1 has Dose.FC.CTG smaller than -0.03 log2 fold change.
Key: 0

Exercise: Say whether its Dose.FC.CTG is strictly beneath -0.03 log2 fold change. Entry: C#CCN[C@@H]1CCc2ccccc21 [Rasagiline Mesylate]
Key: 0

Exercise: # check: Dose.FC.CTG < -0.03 log2 fold change for O=C(NCc1cccc(O)c1)Nc1nc(-c2ccncc2)cs1
Key: 1

Exercise: Record O=C(NNc1nc2cc(F)ccc2n2cccc12)c1cnccn1 : is its Dose.FC.CTG strictly below -0.03 log2 fold change?
Key: 1

Exercise: Given the entry Cc1nn(-c2ccccc2)c(C)c1/C=N/N1CCN(Cc2ccccc2)CC1 , would its reported Dose.FC.CTG be below -0.03 log2 fold change?
Key: 1

Exercise: Is it true that Dose.FC.CTG reported for CCOC(=O)c1ccc(N2NC(=O)/C(=C/c3ccc([N+](=O)[O-])o3)C2=O)cc1 is less than -0.03 log2 fold change?
Key: 0

Exercise: Determine whether this compound shows Dose.FC.CTG lower than -0.03 log2 fold change (ties excluded): Cc1cc(Nc2ccc(NC(=O)c3ccc(Nc4ccnc5ccccc45)cc3)cc2)nc(N)n1
Key: 0

Exercise: Strictly below -0.03 log2 fold change: is that where Dose.FC.CTG of COc1c(C)c(C(=O)c2ccc(N)c(C(=O)[O-])c2)n2ccccc12.[Na+] [SSR128129E] sits?
Key: 0
